test: in vivo; set-up: species or system guinea pigs; details: male, guinea pig, t1/2 (hr), Serum
Counter-ions that a name gives are not always drawn.
measured-property: half-life (h)
Give the quantity in h, number only.

Enquiry: Would you mind telling me what half-life value was observed for CCCCN1CCCCC1C(=O)Nc1c(C)cccc1C (stereo not shown) [Bupivacaine hydrochloride] ?
Return: 2.1

----------
assay: in vivo; parameters: species or system guinea pigs; details: male, guinea pig
Counter-ions that a name gives are not always drawn.
measured-property: Cmax (ng/mL)
Give the quantity in ng/mL, number only.

Enquiry: Would you mind telling me what Cmax value was observed for CCCCN1CCCCC1C(=O)Nc1c(C)cccc1C (stereo not shown) [Bupivacaine hydrochloride] ?
Return: 6500

----------
assay: in vivo; design: species or system guinea pigs; conditions: male, guinea pig, t1/2 (hr), Skin
Counter-ions that a name gives are not always drawn.
measured-property: half-life (h)
Give the quantity in h, number only.

Enquiry: Would you mind telling me what half-life value was observed for CCCCN1CCCCC1C(=O)Nc1c(C)cccc1C (stereo not shown) [Bupivacaine hydrochloride] ?
Return: 1.3
